# Organism: Homo sapiens
# Run description: Selectivity ratio of EC50 for human MC3R to EC50 for human MC1R
*1 amine or outer side, *2 acyl side, *3 side chain or, on linkers, in order; H or OH if unused. Where a SMILES comes first, the peptide text is derived from it. Bridges are numbered along the chain shown (N, C = ends). [ ]: non-standard residue; d: D form. oXylylene = c1ccc(C[*:2])c(C[*:1])c1; pXylylene = c1cc(C[*:2])ccc1C[*:1]; NMeR = CN[C@@H](CCCNC(=N)N)C(=O)O
Parameter: Ratio EC50

{"Compound": "CC[C@H](C)[C@@H]1NC(=O)[C@@H]2CCCN2C(=O)[C@H](Cc2c[nH]c3ccccc23)NC(=O)[C@H](CCCNC(=N)N)N(C)C(=O)[C@H](Cc2ccccc2)NC(=O)[C@H](Cc2cnc[nH]2)NC(=O)[C@H]([C@@H](C)O)NC(=O)[C@@H](NC(C)=O)CSCc2ccccc2CSC[C@@H](C(N)=O)NC1=O (Ac-CTHF[NMeR]WPIC-NH2; linker 1-9 via oXylylene)", "Reported result": 58}
{"Compound": "CC[C@H](C)[C@@H]1NC(=O)[C@@H]2CCCN2C(=O)[C@H](Cc2c[nH]c3ccccc23)NC(=O)[C@H](CCCNC(=N)N)N(C)C(=O)[C@H](Cc2ccccc2)NC(=O)[C@H](Cc2cnc[nH]2)NC(=O)[C@H]([C@@H](C)O)NC(=O)[C@@H](NC(C)=O)CSSC[C@@H](C(N)=O)NC1=O (Ac-CTHF[NMeR]WPIC-NH2; disulfide 1-9)", "Reported result": 5}
{"Compound": "CC[C@H](C)[C@@H]1NC(=O)[C@@H]2CCCN2C(=O)[C@H](Cc2c[nH]c3ccccc23)NC(=O)[C@H](CCCNC(=N)N)N(C)C(=O)[C@H](Cc2ccccc2)NC(=O)[C@H](Cc2cnc[nH]2)NC(=O)[C@H]([C@@H](C)O)NC(=O)[C@@H](NC(C)=O)CSCc2ccc(cc2)CSC[C@@H](C(N)=O)NC1=O (Ac-CTHF[NMeR]WPIC-NH2; linker 1-9 via pXylylene)", "Reported result": 32}

====

# Target: UniProtKB Q01726
# Sequence (Q01726 whole entry): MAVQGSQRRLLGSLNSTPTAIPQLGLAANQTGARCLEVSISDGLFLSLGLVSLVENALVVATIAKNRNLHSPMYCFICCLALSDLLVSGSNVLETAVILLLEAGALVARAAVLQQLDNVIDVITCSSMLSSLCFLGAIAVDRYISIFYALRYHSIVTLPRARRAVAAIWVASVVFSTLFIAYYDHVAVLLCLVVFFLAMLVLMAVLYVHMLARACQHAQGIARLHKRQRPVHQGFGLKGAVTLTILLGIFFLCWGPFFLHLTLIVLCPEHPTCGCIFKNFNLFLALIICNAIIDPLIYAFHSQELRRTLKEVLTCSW
# Run description: Agonist activity at human MC1R expressed in HEK2936E cells assessed as cAMP production in presence of IBMX by time resolved fluorescence assay
# Format: functional, cell-based
# Conditions used: read-out: pEC50 (converted)
*1 amine or outer side, *2 acyl side, *3 side chain or, on linkers, in order; H or OH if unused. Where a SMILES comes first, the peptide text is derived from it. Bridges are numbered along the chain shown (N, C = ends). [ ]: non-standard residue; d: D form. X3 = NC(=O)/C(=C(\C(=O)O)[*:2])[*:1]; pXylylene = c1cc(C[*:2])ccc1C[*:1]; CH2COCH2 = O=C(C[*:1])C[*:2]; Nle = CCCC[C@H](N)C(=O)O; X7 = C(C[*:1])C[*:2]
Kindly apply the following: criterion met if EC50 is less than 0.1 nM, criterion not met in every other case.

{"Molecule": "CCCC[C@@H]1NC(=O)[C@@H]2CSSC[C@H](NC(=O)[C@H](CCCNC(=N)N)NC(=O)[C@H](CC(=O)O)NC(=O)[C@H](Cc3c[nH]c4ccccc34)NC(=O)[C@H](CCCNC(=N)N)NC(=O)[C@H](Cc3ccccc3)NC(=O)[C@H](Cc3cnc[nH]3)NC(=O)CNC1=O)C(=O)N[C@@H](Cc1cnc[nH]1)C(=O)N[C@@H](Cc1ccccc1)C(=O)N[C@@H](CCCNC(=N)N)C(=O)N[C@@H](Cc1c[nH]c3ccccc13)C(=O)N[C@@H](CCCNC(=N)N)C(=O)N2 (cyclo(CHFRWRC[Nle]GHFRWDR); disulfide 1-7)", "Class assignment": "criterion not met"}
{"Molecule": "CCCC[C@@H]1NC(=O)[C@@H]2CSCCCSC[C@H](NC(=O)[C@H](CCCNC(=N)N)NC(=O)[C@H](CC(=O)O)NC(=O)[C@H](Cc3c[nH]c4ccccc34)NC(=O)[C@H](CCCNC(=N)N)NC(=O)[C@H](Cc3ccccc3)NC(=O)[C@H](Cc3cnc[nH]3)NC(=O)CNC1=O)C(=O)N[C@@H](Cc1cnc[nH]1)C(=O)N[C@@H](Cc1ccccc1)C(=O)N[C@@H](CCCNC(=N)N)C(=O)N[C@@H](Cc1c[nH]c3ccccc13)C(=O)N[C@@H](CCCNC(=N)N)C(=O)N2 (cyclo(CHFRWRC[Nle]GHFRWDR); linker 1-7 via X7)", "Class assignment": "criterion not met"}
{"Molecule": "CCCC[C@@H]1NC(=O)[C@@H]2CSCC(=O)CSC[C@H](NC(=O)[C@H](CCCNC(=N)N)NC(=O)[C@H](CC(=O)O)NC(=O)[C@H](Cc3c[nH]c4ccccc34)NC(=O)[C@H](CCCNC(=N)N)NC(=O)[C@H](Cc3ccccc3)NC(=O)[C@H](Cc3cnc[nH]3)NC(=O)CNC1=O)C(=O)N[C@@H](Cc1cnc[nH]1)C(=O)N[C@@H](Cc1ccccc1)C(=O)N[C@@H](CCCNC(=N)N)C(=O)N[C@@H](Cc1c[nH]c3ccccc13)C(=O)N[C@@H](CCCNC(=N)N)C(=O)N2 (cyclo(CHFRWRC[Nle]GHFRWDR); linker 1-7 via CH2COCH2)", "Class assignment": "criterion not met"}
{"Molecule": "CCCC[C@@H]1NC(=O)[C@@H]2CS/C(C(=O)O)=C(/C(N)=O)SC[C@H](NC(=O)[C@H](CCCNC(=N)N)NC(=O)[C@H](CC(=O)O)NC(=O)[C@H](Cc3c[nH]c4ccccc34)NC(=O)[C@H](CCCNC(=N)N)NC(=O)[C@H](Cc3ccccc3)NC(=O)[C@H](Cc3cnc[nH]3)NC(=O)CNC1=O)C(=O)N[C@@H](Cc1cnc[nH]1)C(=O)N[C@@H](Cc1ccccc1)C(=O)N[C@@H](CCCNC(=N)N)C(=O)N[C@@H](Cc1c[nH]c3ccccc13)C(=O)N[C@@H](CCCNC(=N)N)C(=O)N2 (cyclo(CHFRWRC[Nle]GHFRWDR); linker 1-7 via X3)", "Class assignment": "criterion not met"}
{"Molecule": "CCCC[C@@H]1NC(=O)[C@@H]2CSCc3ccc(cc3)CSC[C@H](NC(=O)[C@H](CCCNC(=N)N)NC(=O)[C@H](CC(=O)O)NC(=O)[C@H](Cc3c[nH]c4ccccc34)NC(=O)[C@H](CCCNC(=N)N)NC(=O)[C@H](Cc3ccccc3)NC(=O)[C@H](Cc3cnc[nH]3)NC(=O)CNC1=O)C(=O)N[C@@H](Cc1cnc[nH]1)C(=O)N[C@@H](Cc1ccccc1)C(=O)N[C@@H](CCCNC(=N)N)C(=O)N[C@@H](Cc1c[nH]c3ccccc13)C(=O)N[C@@H](CCCNC(=N)N)C(=O)N2 (cyclo(CHFRWRC[Nle]GHFRWDR); linker 1-7 via pXylylene)", "Class assignment": "criterion met"}

====

# collection of Ki values tested on UniProt:Q01726
*1 amine or outer side, *2 acyl side, *3 side chain or, on linkers, in order; H or OH if unused. Where a SMILES comes first, the peptide text is derived from it. Bridges are numbered along the chain shown (N, C = ends). [ ]: non-standard residue; d: D form. oXylylene = c1ccc(C[*:2])c(C[*:1])c1; pXylylene = c1cc(C[*:2])ccc1C[*:1]; NMeR = CN[C@@H](CCCNC(=N)N)C(=O)O; X1 = n1nc([*:2])nnc1[*:1]; Nle = CCCC[C@H](N)C(=O)O

{"Compound": "CC[C@H](C)[C@@H]1NC(=O)[C@@H]2CCCN2C(=O)[C@H](Cc2c[nH]c3ccccc23)NC(=O)[C@H](CCCNC(=N)N)N(C)C(=O)[C@H](Cc2ccccc2)NC(=O)[C@H](Cc2cnc[nH]2)NC(=O)[C@H]([C@@H](C)O)NC(=O)[C@@H](NC(C)=O)CSCc2ccccc2CSC[C@@H](C(N)=O)NC1=O (Ac-CTHF[NMeR]WPIC-NH2; linker 1-9 via oXylylene)", "Ki": "64.6 nM"}
{"Compound": "CCCC[C@@H]1NC(=O)[C@@H]2CSc3nnc(nn3)SC[C@H](NC(=O)[C@H](CCCNC(=N)N)NC(=O)[C@H](CC(=O)O)NC(=O)[C@H](Cc3c[nH]c4ccccc34)NC(=O)[C@H](CCCNC(=N)N)NC(=O)[C@H](Cc3ccccc3)NC(=O)[C@H](Cc3cnc[nH]3)NC(=O)CNC1=O)C(=O)N[C@@H](Cc1cnc[nH]1)C(=O)N[C@@H](Cc1ccccc1)C(=O)N[C@@H](CCCNC(=N)N)C(=O)N[C@@H](Cc1c[nH]c3ccccc13)C(=O)N[C@@H](CCCNC(=N)N)C(=O)N2 (cyclo(CHFRWRC[Nle]GHFRWDR); linker 1-7 via X1)", "Ki": "0.724 nM"}
{"Compound": "CC[C@H](C)[C@@H]1NC(=O)[C@@H]2CCCN2C(=O)[C@H](Cc2c[nH]c3ccccc23)NC(=O)[C@H](CCCNC(=N)N)N(C)C(=O)[C@H](Cc2ccccc2)NC(=O)[C@H](Cc2cnc[nH]2)NC(=O)[C@H]([C@@H](C)O)NC(=O)[C@@H](NC(C)=O)CSCc2ccc(cc2)CSC[C@@H](C(N)=O)NC1=O (Ac-CTHF[NMeR]WPIC-NH2; linker 1-9 via pXylylene)", "Ki": "112 nM"}
